experiment: yeast display, Sf9 membrane polyspecificity reagent, FACS + sequencing; frameworks hold sequencing errors

SEQUENCE | polyreactivity (PSR sort gate)
QVQHVESGGALVQAGGSHRLSCAASGLTIWRYAKGWYRLATGKERELVAAINYNGVRTYYADSVKGRFTISRDNAKNTVYLQMNSLKQEDTAVYYCAAKPGYYGYWGQGTQVTVSS | high polyreactivity
QVQLVESGGGLVQAGGSLRLSCAASGRIFSRYTMVWYRQAPRKERELVAAISSSGGSTYYADSVKGRFTISRDNAKNTVYLQMNSLKQEDTAVYYCAARQYIGSPPHRRRFDYWGQGTQVTVSS | high polyreactivity
QVQLVESGGGLVQAGGSLRLSCTASGRTLYNYTMGWYRQAPGKERELVAAISRGGGSTYYADSVKGRFTISRDNAKNTVYLQMNSLKQEDTAVYYCATDQTYPYCGGGDYWGQGTQVTVSS | low polyreactivity
QVQLVESGGGLVQAGGSLRLSCAASGLIFARNAMVWYRQAPGKERELVAAIAKRGGSTFYADSVKVRFTISRDNAKNTVYLQMNSLKPEDTAVYYCNARSSETWHGDYWGQGTQVTVSS | high polyreactivity
QVQLVESGGGLVQAGGILRLSCAASGSIFAGYAMGWYRQAPGKERELVAVITWRTDITYADSVKGRFTISRDNAKNTDYLHMNSLKPDDTAVYYCAADSDSTTRLFGDEYWGQGTQVTVSS | low polyreactivity

* * *

experiment: yeast display, Sf9 membrane polyspecificity reagent, FACS + sequencing; frameworks hold sequencing errors
QUANTITY: polyreactivity (PSR sort gate)

SEQUENCE | ASSAY VALUE
QVQLVESGGGLVQAGVSLRLSCAASGRILHGYAMGWYRQAPGKEREFVAAITSSGGRTYYADSVKGRFTISRDNAKNTVYLQMNSLKPDDTAVYYCAADRPAYRTGDSKYDYWGLGTQVTVSS | low polyreactivity
QVQLVESGGGLVQAGGSLRLSCAASGSTFYPYAMGWYRQAPGKERELVAAISSGGSTSYADSVKGRFTISRDNAKNTVYLQMNSLKPEDTEVYYCNASSPGAVPVYDYDYWGQGTQVTVSS | low polyreactivity
QVQLVESGGGLVQAGGSLRLSCASSGLIFRVYNMGWYRQAPGKERELVAAITGRGGRTYYADSVKGRFTISRDNAKNTVYLQMNSLKPEDTSVYYCATGGRFQQAAYTGFNYWGQGTQVTVSS | high polyreactivity
QVQLVESGGGLVQAGGSLRLSFAASGIIFTRYAMGWYRQAPGKERELVARISWRGSSTSYPDSVKGRFTISRDNAKNTVYLQMNSLKPEDSAVYYCAARYLYLWADYEFGYWVQGTQVTVSS | high polyreactivity
QVQLVESGGGLVQAGGSLRLSCAASGIIYIGNAMGWYRQAPGKERELVAAITYTGGSTYYADSVKGRFTISRDNAKNTVYLQMNSLKPEDTAVYYCDFDRTHLEDDYWGQGTQVTVSS | low polyreactivity
QVQLVESAAGLVQAGGSLRLSCAASGFIFQYYAMGWYRQAPGKERELVAAINRGGGTHYADSVKGRFTISRDNAKNTVYLQMNSLKREDTAVYYCNKVYYWPGSRPSRYEYWGQGTQVTVSS | low polyreactivity
QVQLVESGGGLVQAGGSLRLSCAASGIIFDRYAMGWYRQAPGKERELVAAITRSGGRTYYADSVKGRFTISRDNAKNTVYLQMNSLKPEDTAVYYCNAYRSALYPPEYDYWGQGTQVTVSS | high polyreactivity
QVQLVESGGGLVQAGGSLRLSCAASGGTIYGYAAMGWYRQAPGKERELVAAISRSGGRTYYADSVKGRFTISRDNAKNTVYLQMNSRKPEDTAVYYCAARRAYSRPPRDYWGQCTQVTVSS | high polyreactivity
QVQLVESGGGLVQAGGSLRLSCAASGSTFIGYDMGWYRQAPGKERELVAAISYSDGTYYADSVKGRFTISRDNAKNTVYLQMNSLKPEDTAVYYCAAVSLYYRYDYWGQGTQVTVSS | low polyreactivity
QVQLVESGGGLVQAGGSLRISCDASGSTFAWYAMGWYRQAPGKERELVAAISRTGRTYYADSVKGRFTISRDNAKNTVYLQMNRLTPEDTAVYYCAGRIERFYRDQRYDYWGQGTQVTVSS | high polyreactivity
QVQLVESGGGLVQAGGSLRLSCAASGRIFYDNTMGWYRQAPGKERELVATISSAASTNYADSVKGRFTISRDNAKNTVYLQMNSLKPEDTAVYYCAAEWSTYGYQVLPVDYDYWGQGTQVTVSS | low polyreactivity
QVQLVESGGGIVQAGGSLRLSCAASGRIFVRYAKGWYRQAPGKERELVAAITKSGGSTYYADSEKGRFTISRDTAKNTVYLQMNCLQPDDTAVYYCNADRFYIDYTNTYDSIRDYWGQGTLVTVSS | low polyreactivity
QLQHVESGGGLVQAGGSLRLTCAASGRTFGYYAMGWYRQAPGKERELVAAITSGGRTYYADSVKGRFTISRDNAKNTVYLQMNSLKPEDTAVYYCNAPPRWCSRVAWYEYWGQGTQVTVSS | high polyreactivity
QVQLVESGGGLVQAGGSLRLSCAASGSIFRGYALGWYRQAPGKERALVAAITKRGGNTYYADSVKGRFTISRDHAKNTVYLQMNSLKPEDTAVYYCAKAGWGKWVYAQMVYWGQGTQVTVSS | high polyreactivity
QVQLVESGGGLVQAGGSLRLSCAASGRIVGAYAMGWYRQAPGKERELVAAITSAGSTHYADSVKGRFTISRDNAKNTVYLQMNSLKPEDSAVYYCAADGIARAYVLFYAYDFLYDYWGQGTQVTVSS | low polyreactivity
QVQLVESGGGLVQAGGSLRLSCAASGSSIYSYAMGWYRQEPGKERELVAAITTSGGSTYYADSVKGRFTISRDNAKNTDYLQMNSLKPEDTAVYYCNAYFIYEGGWYYKAQYDYWGQGTQVTVSS | low polyreactivity
QVQLVESGGRLGQAVGSLRLSCAASGSIFLQNAMGWYRQAPGKERELVAAITNGGSTNYADSVKGRCTISRDNAKNTVYLQINSLKPEDTAVYYCAAYPLYTGSYDRGGYWGLGTQVTVSS | low polyreactivity
QVQLVESGGGLVQAGGSLRLSCAASGRIFYINVMGWYRQAPGKERELVAGITWIGGSTYADSVKGRFTISRDNAKNTVYLQMNSLKPEVTAVYYCNADPDFTVYRYLWPEGVEYWGQGTQVTVSS | low polyreactivity
QVQLVESGGGLVQAGGSLRLSCDASGLIFYYYAMGWYRQAPGKERELVAAIRWSGGSTYYADSVKGRFTISRDNAKNTVYLQMNSLKPEDTAVYYCSEFYYWGQGTQVTVSS | high polyreactivity
QVQLVESGGGLVQAGGSLRLTCAASGLTFTTYALGWYRQAPGKERELVAAISRRGSRTYYADSVKGRFTISRDNAKNTVYLQMNSLKPEDTAVYYCNALTGSFKTYSFDYWGQGTQVTVSS | high polyreactivity
QVQLVESGGGLVQAGGSLRLSCAASGFIFGYYAMGWYRQAPGKERELVAAISTRGSTYYADSVKGRFTISRDNAKYTVYLQMNSLKPEDTAVYYCNAGWGYRRDYWGQGTQVTVSS | high polyreactivity

* * *

assay: yeast display, Sf9 membrane polyspecificity reagent, FACS + sequencing; frameworks hold sequencing errors

SEQUENCE | polyreactivity (PSR sort gate)
QVQLVESGGGLVQAGGSLRLICAASGRTFSGYAMGWYRPAPGKERELVAAINWSTGSTYYADSVKGRFTISRDNAQNTVYLQMNSLKPEDTAVYYCAAGYYYYGNGRIVQYEYWGQGTQVTVSS | high polyreactivity
QVQLVESGGGLVQAGGSLRLSCAASGSTFLYVMGWYRQAPGKERELVAAISESGGSTYYADSVKGRFTISRDNAKNTVYLQMNSLKPEDTAVYYCAADLQTGLQYRYYRVDYWGQGTQVTVSS | low polyreactivity
QVQLVESGGGLYQAGGSLRLSCAASGRIFATNAMRWSRQAPGKERELVATITRSAGRTYYADSVKGRFTISRDNAKNTVYLQMNSLKPEDTAVYYCAASYWDTEPGYREYDYWGQGTQVTVSS | low polyreactivity
QVQLVESGGGLVQAGGSLRLSCAASGFTFSTYAMGWYRPAPGKERELGAAISRSGGSTYYADSVKGRFTISRDNAKNTVYLQMNSLKPEDTAVYYCAADGLRRESSYYYWAQGTQVTVSS | high polyreactivity
QDQHVESGGGLLQAGGSLRLTCAAYGSIFTDYAMGWYRQPPGKERELVAAITRIGTRTYYADSVKGRFTISRDNAKNTVYLQMNSLKPEDTAVYYCAASGYSPVRWVWLYYWGQGTQVTVSS | high polyreactivity
QVQLVESGGGLVQAGGSLRLSCAASGSYFDYYAMGCYTQAPGKERELVAAISWRGGTTYYADSVKGRFTISRDTAKKTVYLQMNSLKPEETAVYYCNADKRFRRYDYWGQGTQVTVSS | high polyreactivity
QVQLVESGGGLVPAGGSLRLSCAASGRIFGYYAMGWYRQATGKERELLATIRWRGGSPYYADSVKGRFTISRDNAKNTVYLQMNSLKPEVTAVYYCAATRARRWSSPGQYGYWGQGTQVTVSS | high polyreactivity
QVQLVESGGGLVQAGGSLRLSCAASGSIFYRYAMGWYRQAPGKERELVAAISSNGVSTYYADSVKGRFTISRDNAKNTVYLQMTSLNPEDTAVYYCARDVYASPRLYTSRYNYWGQGTQVTVSS | low polyreactivity
QVQLVESGGGLVQAGGSLRLSCAASGRIFRFYAMGWYRQAPGKERELVAAISWRGGRTYYADSVKGRFTISRDNAKNTVYVQMNSLKPEDTAVYYCNADKYETSGWKYVSWGQGTQVTVSS | low polyreactivity
QVQIVESGGGLVQAGGSLRLSCAASGRTIGVYAMGWYRQAPRKERELVAAITGDGTKDYADSVKGRFRFSRAISKITVYLQMNSLKPEDTAVYYCAVGGAGSDDYWGQGTQVTVSS | low polyreactivity
QVQLVESRGGIVQAGGSLRLSCAASGRIFGWYAMGWYRQAPGKERELVAAITSSVGRTYYADSVKGRFTISRDNAKNTVYLQMNSLKPEDTAVYYCAKDLYTYYYFEYDYWGQGTQVTVSS | low polyreactivity
